// reported IC50 per item
measurementTarget: hQC (Homo sapiens)
assayInfo: Inhibitor assay for glutaminyl cyclase activity (fluorometric, H-Gln-βNA / H-Gln-AMC)
Assay type: biochemical
particulars: read-out: IC50
measurementType: IC50 (nM)

>>> df
                                   compound  measvalue
0  O=C(C1=C(O)C(=O)N(c2ccc3[nH]cnc3c2)C1c1ccc2cccc(O)c2n1)C1CC1 (stereo not shown)          4
1  O=C1C(O)=C(c2cccc(O)c2)C(c2c[nH]c3ccccc23)N1CCCn1ccnc1 (stereo not shown)       9400
2  CC(=O)C1=C(O)C(=O)N(c2ccc3[nH]cnc3c2)C1c1ccc2cccc(O)c2n1 (stereo not shown)          4
3  CC1=C(O)C(=O)N(c2ccc3[nH]cnc3c2)C1c1cc(Cl)ccc1O (stereo not shown)       5800

---

measurementTarget: hQC (Homo sapiens, UniProt Q16769)
Sequence (Q16769 29-361): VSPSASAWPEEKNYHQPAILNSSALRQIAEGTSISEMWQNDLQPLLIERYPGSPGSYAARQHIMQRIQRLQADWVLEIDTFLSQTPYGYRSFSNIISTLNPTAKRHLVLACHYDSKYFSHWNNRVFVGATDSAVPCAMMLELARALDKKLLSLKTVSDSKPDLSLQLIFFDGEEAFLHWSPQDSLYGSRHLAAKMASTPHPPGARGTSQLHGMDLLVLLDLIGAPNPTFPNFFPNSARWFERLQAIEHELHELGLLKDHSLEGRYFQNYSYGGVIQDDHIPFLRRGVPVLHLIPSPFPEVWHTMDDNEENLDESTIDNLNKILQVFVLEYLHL
assayInfo: Inhibitor assay for glutaminyl cyclase activity (fluorometric, H-Gln-βNA / H-Gln-AMC)
Format: biochemical
particulars: read-out: IC50
pIC50: −log10 of the molar value.
Listing of entries alongside the reported pIC50.
measurementType: pIC50

>>> print(df.to_string())
                                    molecule  measvalue
 0  O=C1C(O)=C(c2c[nH]c3ccccc23)C(c2ccc(O)c(Br)c2)N1c1ccc2[nH]cnc2c1 (stereo not shown)       6.24
 1  CCCCCC1=C(O)C(=O)N(CCCn2ccnc2)C1c1c[nH]c2cc(C)ccc12 (stereo not shown)       7.40
 2  CC1=C(O)C(=O)N(c2ccc3[nH]cnc3c2)C1c1cc(F)cc(F)c1F (stereo not shown)       6.66
 3  Cc1cccc(C2C(c3cccc(O)c3)=C(O)C(=O)N2c2ccc3[nH]cnc3c2)c1 (stereo not shown)       5.44
 4  CC1=C(O)C(=O)N(c2ccc3[nH]cnc3c2)C1c1csc2ccccc12 (stereo not shown)       5.51
 5  CCCC(=O)C1=C(O)C(=O)N(c2ccc3[nH]cnc3c2)C1c1ccnc2ccccc12 (stereo not shown)       5.80
 6  CC1=C(O)C(=O)N(CCCn2ccnc2)C1C1=CCCCC1 (stereo not shown)       5.66
 7  CC(=O)C1=C(O)C(=O)N(c2ccc3[nH]cnc3c2)C1c1cccc(F)c1F (stereo not shown)       8.40
 8  CC1=C(O)C(=O)N(c2ccc3[nH]cnc3c2)C1c1cc(C)c(C)o1 (stereo not shown)       5.04
 9  Cc1cc(C2C(c3ccc(O)cc3)=C(O)C(=O)N2c2ccc3[nH]cnc3c2)oc1C (stereo not shown)       5.86
10  O=C1C(O)=C(c2c[nH]c3ccccc23)C(c2ccccc2)N1CCCn1ccnc1 (stereo not shown)       7.40
11  CCCCC1C(c2c[nH]c3ccccc23)=C(O)C(=O)N1CCCn1ccnc1 (stereo not shown)       6.40
12  Cc1ccc(O)c(C2C(c3ccc(O)cc3)=C(O)C(=O)N2c2ccc3[nH]cnc3c2)c1 (stereo not shown)       5.15
13  O=C1C(O)=C(c2ccc(O)cc2)C(Cc2ccccc2)N1CCCn1ccnc1 (stereo not shown)       7.40
14  CC(C)C1=C(O)C(=O)N(c2ccc3[nH]cnc3c2)C1c1c(F)ccc(Cl)c1F (stereo not shown)       5.09
15  Cc1cccc(C2C(C(C)C)=C(O)C(=O)N2c2ccc3[nH]cnc3c2)n1 (stereo not shown)       5.02
16  Cc1ccc(C2C(C(=O)C3CCCCC3)=C(O)C(=O)N2c2ccc3[nH]cnc3c2)o1 (stereo not shown)       6.24
17  CCCCCC1=C(O)C(=O)N(CCCn2ccnc2)C1c1ccco1 (stereo not shown)       7.40
18  CCCC(=O)C1=C(O)C(=O)N(c2ccc3[nH]cnc3c2)C1c1c[nH]cn1 (stereo not shown)       5.11
19  CC(=O)C1=C(O)C(=O)N(c2ccc3[nH]cnc3c2)C1C1CCOC1 (stereo not shown)       5.32
20  CCCCCC1=C(O)C(=O)N(CCCn2ccnc2)C1c1cccc(Cl)c1 (stereo not shown)       7.40
21  O=C1C(O)=C(c2ccccc2)C(c2cccc(Cl)c2)N1CCCn1ccnc1 (stereo not shown)       6.40
22  CC1=C(O)C(=O)N(c2ccc3[nH]cnc3c2)C1c1coc2ccccc2c1=O (stereo not shown)       5.41
23  O=C1C(O)=C(c2ccccc2)C(C2=CCCCC2)N1CCCn1ccnc1 (stereo not shown)       5.31
24  Cc1cccc(C2C(C(=O)C3CC3)=C(O)C(=O)N2c2ccc3[nH]cnc3c2)n1 (stereo not shown)       6.24
25  Cc1ccc(C2C(c3cccc(O)c3)=C(O)C(=O)N2CCCn2ccnc2)cc1C (stereo not shown)       5.89
26  CCC/C=C/C1C(CCCCC)=C(O)C(=O)N1CCCn1ccnc1 (stereo not shown)       5.89
27  CCCCCC1=C(O)C(=O)N(CCCn2ccnc2)C1c1ccccc1O (stereo not shown)       7.40
28  CC1=C(O)C(=O)N(c2ccc3[nH]cnc3c2)C1c1ccco1 (stereo not shown)       8.40
29  Cc1ccc(C2C(C(=O)c3cccs3)=C(O)C(=O)N2c2ccc3[nH]cnc3c2)o1 (stereo not shown)       6.12
30  O=C1C(O)=C(c2ccc(O)cc2)C(C(O)CO)N1CCCn1ccnc1 (stereo not shown)       6.40
31  CC1=C(O)C(=O)N(c2ccc3[nH]cnc3c2)C1c1cc(F)c(F)cc1F (stereo not shown)       6.63
32  CC(C)CC(=O)C1=C(O)C(=O)N(c2ccc3[nH]cnc3c2)C1C1CCOC1 (stereo not shown)       6.31
33  CCCC(=O)C1=C(O)C(=O)N(c2ccc3[nH]cnc3c2)C1c1ccsc1 (stereo not shown)       6.07

---

measurementTarget: hQC (Homo sapiens, UniProt Q16769)
assayInfo: Inhibitor assay for glutaminyl cyclase activity (fluorometric, H-Gln-βNA / H-Gln-AMC)
Assay type: biochemical
particulars: compound from preparative synthesis, purified; read-out: IC50 hQC
Measured IC50 by item
measurementType: IC50 (nM)

In [3]: df
Out[3]:
                                   compound                   measurementtarget  measurementtype   u  measvalue
0  CCCCCC1=C(O)C(=O)N(CCCn2ccnc2)C1c1ccccc1F (stereo not drawn)  hQC (Homo sapiens, UniProt Q16769)             IC50  nM       1540
1  O=C1C(O)=C(c2cccc(O)c2)C(c2ccc3nsnc3c2)N1c1ccc2[nH]cnc2c1 (stereo not drawn)  hQC (Homo sapiens, UniProt Q16769)             IC50  nM       22.5
2  O=C1C(O)=C(c2c[nH]c3ccccc23)C(c2cnc3ccccc3c2)N1c1ccc2[nH]cnc2c1 (stereo not drawn)  hQC (Homo sapiens, UniProt Q16769)             IC50  nM        575

---

measurementTarget: hQC (Homo sapiens, UniProt Q16769)
assayInfo: Inhibitor assay for glutaminyl cyclase activity (fluorometric, H-Gln-βNA / H-Gln-AMC)
Type: biochemical
particulars: read-out: IC50
The compounds listed here are annotated with their IC50.
measurementType: IC50

>>> print(df.to_string())
                                    compound  measurementtype  measvalue
 0  O=C1C(O)=C(c2ccccc2)C(c2ccccc2F)N1CCCn1ccnc1 (centres unmarked)             IC50      40 nM
 1  CC1=C(O)C(=O)N(CCCn2ccnc2)C1c1ccc(C)cc1 (centres unmarked)             IC50    2200 nM
 2  CCCC(=O)C1=C(O)C(=O)N(c2ccc3[nH]cnc3c2)C1CCC (centres unmarked)             IC50    5170 nM
 3  Cc1cc(C2C(c3ccccc3)=C(O)C(=O)N2c2ccc3[nH]cnc3c2)oc1C (centres unmarked)             IC50    1390 nM
 4  CC(=O)C1=C(O)C(=O)N(c2ccc3[nH]cnc3c2)C1c1cccc(C)n1 (centres unmarked)             IC50    2110 nM
 5  O=C1C(O)=C(c2c[nH]c3ccccc23)C(c2ccc3nonc3c2)N1c1ccc2[nH]cnc2c1 (centres unmarked)             IC50      40 nM
 6  O=C(C1=C(O)C(=O)N(c2ccc3[nH]cnc3c2)C1c1c[nH]cn1)C1CCCCC1 (centres unmarked)             IC50    2470 nM
 7  CCC1=C(O)C(=O)N(c2ccc3[nH]cnc3c2)C1c1ccc2nonc2c1 (centres unmarked)             IC50    2110 nM
 8  CC1=C(O)C(=O)N(CCCn2ccnc2)C1c1ccncc1 (centres unmarked)             IC50    3100 nM
 9  CC1=C(O)C(=O)N(CCCn2ccnc2)C1c1cc(Cl)cc(Cl)c1O (centres unmarked)             IC50     400 nM
10  CC(C)C1=C(O)C(=O)N(CCCn2ccnc2)C1c1ccco1 (centres unmarked)             IC50    2200 nM
11  CC1=C(O)C(=O)N(c2ccc3[nH]cnc3c2)C1c1ccccc1F (centres unmarked)             IC50    1930 nM
12  O=C1C(O)=C(c2ccc(O)cc2)C(c2c[nH]c3ccccc23)N1CCCn1ccnc1 (centres unmarked)             IC50      40 nM
13  CCCCCC1C(F)=C(O)C(=O)N1CCCn1ccnc1 (centres unmarked)             IC50    4900 nM
14  CCC1=C(O)C(=O)N(CCCn2ccnc2)C1c1cccs1 (centres unmarked)             IC50      40 nM
15  Cc1ccc(C2C(c3ccc(O)cc3)=C(O)C(=O)N2CCCn2ccnc2)o1 (centres unmarked)             IC50      40 nM
16  Cc1ccc(C2C(c3ccccc3)=C(O)C(=O)N2CCCn2ccnc2)o1 (centres unmarked)             IC50    2200 nM
17  CCCCCC1C(c2c[nH]c3ccccc23)=C(O)C(=O)N1CCCn1ccnc1 (centres unmarked)             IC50     400 nM
18  CCCC(=O)C1=C(O)C(=O)N(c2ccc3[nH]cnc3c2)C1c1ccc[nH]1 (centres unmarked)             IC50    8680 nM
19  CCCCCC1=C(O)C(=O)N(CCCn2ccnc2)C1c1ccc2[nH]ccc2c1 (centres unmarked)             IC50      40 nM
20  Cc1cccc(C2C(C(=O)C3CCCCC3)=C(O)C(=O)N2c2ccc3[nH]cnc3c2)n1 (centres unmarked)             IC50    1750 nM
21  CCC1=C(O)C(=O)N(c2ccc3[nH]cnc3c2)C1c1ccc(N2CCCC2)cc1 (centres unmarked)             IC50    8320 nM
22  CCCC1C(c2ccc(O)cc2)=C(O)C(=O)N1CCCn1ccnc1 (centres unmarked)             IC50      40 nM
23  CC(=O)C1=C(O)C(=O)N(c2ccc3[nH]cnc3c2)C1c1ccc(N2CCCC2)cc1 (centres unmarked)             IC50    1570 nM
24  CCCC(=O)C1=C(O)C(=O)N(c2ccc3[nH]cnc3c2)C1c1ccco1 (centres unmarked)             IC50    2740 nM
25  CCCC(=O)C1=C(O)C(=O)N(c2ccc3[nH]cnc3c2)C1c1c[nH]c2ccccc12 (centres unmarked)             IC50    8590 nM
26  CCCCCC1=C(O)C(=O)N(CCCn2ccnc2)C1CO (centres unmarked)             IC50     400 nM
27  CCCC(=O)C1=C(O)C(=O)N(c2ccc3[nH]cnc3c2)C1c1cc(C(F)(F)F)cc(C(F)(F)F)c1 (centres unmarked)             IC50    6790 nM
28  CC1=C(O)C(=O)N(c2ccc3[nH]cnc3c2)C1c1cc(C)ccc1C (centres unmarked)             IC50    9130 nM
29  CCC1=C(O)C(=O)N(CCCn2ccnc2)C1C(F)(F)F (centres unmarked)             IC50      40 nM
30  O=C1C(O)=C(c2ccccc2)C(c2cccs2)N1CCCn1ccnc1 (centres unmarked)             IC50    1300 nM
31  CCCCCC1=C(O)C(=O)N(CCCn2ccnc2)C1c1ccc(CO)o1 (centres unmarked)             IC50      40 nM
32  CCCC1C(c2ccccc2)=C(O)C(=O)N1CCCn1ccnc1 (centres unmarked)             IC50     400 nM
33  Cc1ccc2occ(C3C(C(C)C)=C(O)C(=O)N3c3ccc4[nH]cnc4c3)c(=O)c2c1 (centres unmarked)             IC50    1390 nM
34  CCCCCC1=C(O)C(=O)N(CCCn2ccnc2)C1CCCCC (centres unmarked)             IC50      40 nM
